system: M44-modified F NTAA target peptides (M44-F-P2-peptide)
assay-comment: Gini coefficient of P2 tolerance from multiplex encoding heatmap
Reported values of P2 score for individual entries
// return just the number, without any unit appended

- binder: "SEQ ID NO 23 (designed binder, not shown: small tags and cut ends; large carriers) QVSVQPNFQQDKFLGRWFLAGAASNSSWLREKNAALSYAKLVVAPATDGGLNSTVTRLRKNQCETETRLLQPAGSLGSYSWRSPHLGSTLSLSVVETDYDQYALVYAQGSKGPGEDVRGAELLSRTQTPRAELKEKFTAFSKAQGFTEDTIVFLPQTDKCMTEQ"
  observed-value: 0.456
- binder: "SEQ ID NO 43 (designed binder, not shown: small tags and cut ends; large carriers) TVPDRSEIAGKWYVVALASNTEFVLREKDWLKLAMARISFLGEDELKVSMTTPGPNGCTKWERTLKKTSDDGEVYSSPRAKEKVEVLDTDYKSYAVIYATAVKDGRTLHEMWLYSRSPEVSPAATAIFRKLAGERNYTDEMVAMLPRQEECTVDEV"
  observed-value: 0.359

// below: P2 score requested for another binder
## Input Give P2 score for SEQ ID NO 30 (designed binder, not shown: small tags and cut ends; large carriers) QDSTQNLIPAPPLISVPLQPGFWTERFQGRWFNVGIAGNAVQKERQSRFTMLSLISELQEDNSYNWTLISVRGQGCRYRILTWVPSSRPGQFTLGNIHSYPQIQSLDVQVADTDYDQFAMVFAQGTSENKQYFEVILMGRTKGLSDELKERFVSFAKSLGLKDNNIVFSVPTDQCIDN
## Output 0.378
